FYI, the data here is from paper PMC7822176.

- method: MTT cell viability test, hCMEC/D3
- Type: cell-based
- condition.details: human, 100 µM, read-out: % viable cells hCMEC/D3
property: viability at 100 µM (%)
Give bare numbers, in %.

Query block: Looking for the measured viability at 100 µM of Nc1c2c(nc3ccccc13)CCCC2 [THA, Tacrine, reference compound] , can you help?
Result block: 94.5

====

- system.tested: GluN1/GluN2B receptors (Homo sapiens, UniProt Q05586+Q13224)
- Construct: expressed in transfected cells; host or cells: HEK293
- Sequence (Q13224 27-1484, other chains not shown): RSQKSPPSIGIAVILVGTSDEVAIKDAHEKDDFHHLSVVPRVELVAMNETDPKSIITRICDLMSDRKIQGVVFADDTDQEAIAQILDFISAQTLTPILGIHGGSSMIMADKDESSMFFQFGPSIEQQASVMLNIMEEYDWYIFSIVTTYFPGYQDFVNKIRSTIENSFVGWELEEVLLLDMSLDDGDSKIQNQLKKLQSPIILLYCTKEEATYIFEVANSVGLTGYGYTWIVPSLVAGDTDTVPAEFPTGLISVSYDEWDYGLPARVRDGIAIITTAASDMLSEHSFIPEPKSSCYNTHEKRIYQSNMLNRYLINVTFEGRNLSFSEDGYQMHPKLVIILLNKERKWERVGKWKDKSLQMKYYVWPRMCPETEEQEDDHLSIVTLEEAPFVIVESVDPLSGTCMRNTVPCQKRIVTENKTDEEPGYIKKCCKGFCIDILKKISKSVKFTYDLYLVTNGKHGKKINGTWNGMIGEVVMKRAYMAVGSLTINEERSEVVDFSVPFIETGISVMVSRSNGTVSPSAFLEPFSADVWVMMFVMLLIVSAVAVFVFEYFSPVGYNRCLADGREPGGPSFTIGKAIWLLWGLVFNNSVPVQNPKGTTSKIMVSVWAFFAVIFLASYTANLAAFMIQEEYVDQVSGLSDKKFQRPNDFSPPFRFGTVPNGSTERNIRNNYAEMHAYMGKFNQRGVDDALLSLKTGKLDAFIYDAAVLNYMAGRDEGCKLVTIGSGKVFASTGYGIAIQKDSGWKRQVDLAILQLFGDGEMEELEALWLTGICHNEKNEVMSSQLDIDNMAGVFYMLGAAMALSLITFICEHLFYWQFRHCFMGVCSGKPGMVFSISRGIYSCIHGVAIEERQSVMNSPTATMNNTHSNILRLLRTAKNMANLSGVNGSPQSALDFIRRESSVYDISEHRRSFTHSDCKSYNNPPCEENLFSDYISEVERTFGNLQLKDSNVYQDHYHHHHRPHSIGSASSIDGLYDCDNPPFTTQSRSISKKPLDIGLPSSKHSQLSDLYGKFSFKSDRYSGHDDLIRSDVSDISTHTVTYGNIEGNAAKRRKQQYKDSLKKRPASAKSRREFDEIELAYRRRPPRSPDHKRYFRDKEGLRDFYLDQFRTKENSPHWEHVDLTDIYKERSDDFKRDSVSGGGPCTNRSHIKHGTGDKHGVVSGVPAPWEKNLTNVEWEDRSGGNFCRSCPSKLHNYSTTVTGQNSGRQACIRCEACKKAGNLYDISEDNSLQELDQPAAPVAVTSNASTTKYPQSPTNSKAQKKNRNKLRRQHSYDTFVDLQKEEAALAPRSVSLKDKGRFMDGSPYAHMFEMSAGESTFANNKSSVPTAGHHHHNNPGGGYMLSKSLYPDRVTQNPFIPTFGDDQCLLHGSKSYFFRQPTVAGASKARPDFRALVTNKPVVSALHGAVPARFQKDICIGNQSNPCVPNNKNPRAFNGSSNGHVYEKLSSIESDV
- method: cell-based
- condition.details: −60 mV; read-out: IC50 −60 mV GluN1/GluN2B
Task for the reader: assign each of the following compounds its reported IC50.
Reply with the number, then its unit.

compound=Cl.c1ccc2c(c1)-c1ccccc1C2NC1CCC1 property=IC50 result="15.3 µM"

Query block: Looking for the measured IC50 of CCCCNC1c2ccccc2-c2ccccc21.Cl [Compound 3m, N-Butyl-9H-fluoren-9-amine hydrochloride] , can you help?
Result block: 11.7 µM

====

- method: MTT cell viability assay, CHO-K1
- Type: cell-based
- condition.details: Chinese hamster, CHO-K1 cells, 24 h exposure, mean of three independent measurements, read-out: IC50 ± SEM CHO-K1 cell viability
Structures can show the parent of a compound that is named as a salt.
property: IC50 at 24 h (µM)
One number for each entry, in µM.

molecule="c1ccc2c(c1)-c1ccccc1C2N1CCCCC1 [Compound 3f]" quantitative_readout=872
molecule="c1ccc2c(c1)-c1ccccc1C2N1CCCC1 [Compound 3o]" quantitative_readout=413
molecule="c1ccc2c(c1)-c1ccccc1C2NC1CC1 [Compound 3d]" quantitative_readout=353

Here are 3 molecules. What values of IC50 at 24 h were reported for them?
1. CCCCNC1c2ccccc2-c2ccccc21.Cl [Compound 3m, N-Butyl-9H-fluoren-9-amine hydrochloride]
2. CCNC1c2ccccc2-c2ccccc21 [Compound 3h, N-Ethyl-9H-fluoren-9-amine hydrochloride]
3. Cl.c1ccc2c(c1)-c1ccccc1C2NC1CCCCC1 [Compound 3c]

Result block:
1. 140
2. 417
3. 111

Here are 6 molecules. What values of IC50 at 24 h were reported for them?
1. Cl.c1ccc2c(c1)-c1ccccc1C2NC1CCC1 [Compound 3e]
2. CCN1CCN(C2c3ccccc3-c3ccccc32)CC1 [Compound 3k]
3. CC(C)NC1c2ccccc2-c2ccccc21 [Compound 3a]
4. COCCNC1c2ccccc2-c2ccccc21 [Compound 3g]
5. CCN(CC)C1c2ccccc2-c2ccccc21 [Compound 3i]
6. CNC1c2ccccc2-c2ccccc21 [Compound 3b]

Result block:
192
239
387
738
266
427

Here are 2 molecules. What values of IC50 at 24 h were reported for them?
1. CN1CCN(C2c3ccccc3-c3ccccc32)CC1 [Compound 3j]
2. CC(C)CNC1c2ccccc2-c2ccccc21.Cl [Compound 3n]

Result block:
1: 259; 2: 236

====

- method: in vitro
- condition.details: human
Task for the reader: assign each of the following molecules its reported Papp.
Numbers only, in ×10⁻⁶ cm/s.

Would you please look over these solved cases?
molecule="O/N=C/c1cc[n+](COC[n+]2ccc(/C=N/O)cc2)cc1 [Obidoxime, reference compound]" quantitative_readout=14.3
molecule="CCCCNC1c2ccccc2-c2ccccc21.Cl [Compound 3m, N-Butyl-9H-fluoren-9-amine hydrochloride]" quantitative_readout=18.5
molecule="Cc1cc(=O)n(-c2ccccc2)n1C [Antipyrine, reference compound]" quantitative_readout=17.2
molecule="CC(C)CNC1c2ccccc2-c2ccccc21.Cl [Compound 3n]" quantitative_readout=14.6

Here are 2 molecules. What values of Papp were reported for them?
1. Cl.c1ccc2c(c1)-c1ccccc1C2NC1CCCCC1 [Compound 3c]
2. Nc1c2c(nc3ccccc13)CCCC2 [THA, Tacrine, reference compound]

Result block:
[12.3, 22.3]

Here are 3 molecules. What values of Papp were reported for them?
1. CCN(C)C(=O)Oc1cccc([C@H](C)N(C)C)c1 [Rivastigmine, reference compound]
2. CC(C)NCC(O)COc1cccc2ccccc12 (stereo not drawn) [Propranolol, reference compound]
3. Cl.c1ccc2c(c1)-c1ccccc1C2NC1CCC1 [Compound 3e]

Result block:
[28.6, 23.1, 13.5]
